pIC50: −log10 of the molar value.
Please find below pIC50 data on Dipeptidyl peptidase 9 (Homo sapiens, UniProt Q86TI2) compiled from the literature.
Sequence (Q86TI2 whole entry): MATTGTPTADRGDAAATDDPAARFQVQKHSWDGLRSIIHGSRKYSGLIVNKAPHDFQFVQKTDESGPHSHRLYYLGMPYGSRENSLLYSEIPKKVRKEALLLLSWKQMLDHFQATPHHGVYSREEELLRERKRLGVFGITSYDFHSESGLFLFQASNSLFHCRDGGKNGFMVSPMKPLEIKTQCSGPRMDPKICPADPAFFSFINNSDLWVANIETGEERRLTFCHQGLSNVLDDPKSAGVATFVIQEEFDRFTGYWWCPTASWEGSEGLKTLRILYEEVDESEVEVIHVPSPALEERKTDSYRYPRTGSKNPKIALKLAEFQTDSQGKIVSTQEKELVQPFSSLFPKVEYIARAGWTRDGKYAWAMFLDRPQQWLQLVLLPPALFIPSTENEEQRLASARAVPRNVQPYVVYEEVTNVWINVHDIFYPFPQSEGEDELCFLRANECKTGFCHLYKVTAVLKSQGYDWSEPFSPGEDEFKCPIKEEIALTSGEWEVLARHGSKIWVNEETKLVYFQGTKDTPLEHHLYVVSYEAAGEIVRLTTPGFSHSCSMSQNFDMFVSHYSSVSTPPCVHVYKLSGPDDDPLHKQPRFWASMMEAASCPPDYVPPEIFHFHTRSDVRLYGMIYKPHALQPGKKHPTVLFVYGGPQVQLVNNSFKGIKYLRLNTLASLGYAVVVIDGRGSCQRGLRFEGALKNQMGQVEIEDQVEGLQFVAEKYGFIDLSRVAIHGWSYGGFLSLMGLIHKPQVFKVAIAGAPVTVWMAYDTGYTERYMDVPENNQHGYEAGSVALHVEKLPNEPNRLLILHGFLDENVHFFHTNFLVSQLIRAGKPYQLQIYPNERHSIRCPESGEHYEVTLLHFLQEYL

# compound-smiles, pIC50
rows = [
    ("Cc1ccc(S(=O)(=O)N(C)c2ccc([C@H](C(=O)N(C)C)[C@H](N)C(=O)N3CC[C@H](F)C3)cc2)cc1", "< 4.00"),
    ("CN(C)C(=O)[C@@H](c1ccc(-c2ccn3ncnc3c2)cc1)[C@H](N)C(=O)N1CC[C@H](F)C1.O=C(O)C(F)(F)F", "< 4.00"),
    ("Cn1nc(-c2ccc(F)cc2)c2c1CCN(C(=O)C[C@H](N)Cc1cc(F)ccc1F)C2", "< 4.00"),
    ("Cc1c(-c2ccc([C@H](C)[C@H](N)C(=O)N3CC[C@H](F)C3)cc2)ccc(=O)n1C", "< 4.00"),
]

From here, focus on the item given below.
Prompt: Return pIC50 (reported value) for this compound: N[C@H]1CN(c2ccncc2)CC[C@@H]1c1cc(F)c(F)cc1F
Response: 4.46
